Sourced from patent US10442763B2

For each of the compounds below, state its IC50.
# STUDY TARGET: His-EBNA1 (DNA binding domain of EBNA1, amino acids 459-607) (Epstein-Barr virus, UniProt P03211)
# Sequence (P03211 459-607): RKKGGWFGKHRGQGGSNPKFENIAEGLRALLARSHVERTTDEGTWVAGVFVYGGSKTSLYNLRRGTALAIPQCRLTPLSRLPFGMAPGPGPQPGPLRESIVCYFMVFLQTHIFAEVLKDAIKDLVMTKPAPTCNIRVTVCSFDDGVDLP

input: Find the recorded IC50 belonging to CS(=O)(=O)N1CC2CN(Cc3ccc(C#Cc4cccc(C(=O)O)c4-c4ccc5cc[nH]c5c4)cc3)CC2C1 (stereo not shown) and report it.
output: 10 to 100 µM

input: Note, next up: CS(=O)(=O)c1cccc(OCc2ccc(C#Cc3cccc(C(=O)O)c3-c3ccc4cc[nH]c4c3)cc2)c1
output: 1 to 10 µM

input: Would you mind doing COC1CCN(Cc2ccc(C#Cc3cccc(C(=O)O)c3-c3ccc4[nH]ccc4c3)cc2)CC1 as well?
output: 10 to 100 µM

input: Can you handle O=C(O)c1cccc(C#Cc2ccc3c(ccn3CC3CCOCC3)c2)c1-c1ccc2cc[nH]c2c1 next?
output: 1 to 10 µM

input: Quick one: CS(=O)(=O)N1CC(CN2CCc3cc(C#Cc4cccc(C(=O)O)c4-c4ccc5cc[nH]c5c4)ccc3C2)C1
output: 10 to 100 µM

input: Further, for CN1CCN(Cc2ccc(C#Cc3cccc(C(=O)O)c3-c3ccc4cc[nH]c4c3)cc2)CC1 ?
output: 10 to 100 µM

input: Would you mind doing CC(C)S(=O)(=O)N1Cc2ccc(C#Cc3cccc(C(=O)O)c3-c3ccc4cc[nH]c4c3)cc2C1 as well?
output: 1 to 10 µM
